assay: Toxicity liver stage against HepG2, at 10uM; format: cell-based; set-up: test concentration 10 uM, cell line HepG2-A16-CD81EGFP; details: human, HepG2-A16-CD81EGFP cells; read-out: INHIBITION
Listing: cytotoxicity at 10 µM of selected compounds
readout-type: cytotoxicity at 10 µM (%)

{"columns": ["compound", "observed"],
 "data": [
  ["CN(Cc1ccc(F)cc1)C(=O)CN1CCCCC1Cn1cncn1 (centres undefined)", 0.108],
  ["COC1CC2(CCN(Cc3ccc4c(c3)OCO4)CC2)C1", 3.07],
  ["c1cnc(OCc2nnc3n2CCN(CC2CCOCC2)C3)nc1", 4.95],
  ["CNC(=O)C1CC2(CCN(C(=O)c3csnn3)CC2)c2ccccc21 (centres undefined)", -154],
  ["O=C(CN1CCS(=O)(=O)CC1)NCc1ccccc1F", 6.32],
  ["CNC(=O)CSc1cnn(CC(=O)Nc2cccc(Cl)c2C)c(=O)c1Cl", -17.6],
  ["CCn1cc(NC(=O)C2CCN(Cc3nc(C)c(C)s3)CC2)cn1", 6.37],
  ["Cc1ccc(S(=O)(=O)NCCCN2CCC(O)CC2)c(F)c1", 4.24],
  ["Cc1cnc(CC2COCCN(C(=O)CN3CCCCC3)C2)cn1 (centres undefined)", -3.22],
  ["O=C(O)CC(CC(=O)NCc1ccsc1)c1cccs1 (centres undefined)", -8.43],
  ["CC1CCCN(C(=O)NCCCn2cncn2)C1 (centres undefined)", -3.98],
  ["Cc1ccc(-c2ccsc2C(=O)NC2CCS(=O)(=O)C2)cc1 (centres undefined)", 1.07],
  ["Cc1ccccc1C(=O)N1CC(C(=O)NCC2CC2)C2(CCOCC2)C1 (centres undefined)", 3.54],
  ["COCC(O)CN1CCC(=O)N(Cc2ccco2)Cc2ccccc21 (centres undefined)", -5.62],
  ["CCN1C(=O)COC[C@@H]1[C@H](O)c1ccc(NC(=O)COC)cc1", 1.73],
  ["CCn1cnnc1C1CCN(C(=O)c2ccc(Cl)cc2OC)CC1", -1.94],
  ["CC(C)CC(CCO)CNC(=O)N1CC(C)(C)C1(C)C (centres undefined)", -2.48],
  ["CC(C)(C)C(O)CN1CCN(C(=O)c2ccc3c(c2)COC3)CC1 (centres undefined)", -2.42],
  ["O=C(Nc1cnn(-c2ccccc2Cl)c1)NC1CCC(O)CC1 (centres undefined)", -2.49],
  ["CCOc1ncnc2c1CCN(S(=O)(=O)c1ccccc1)CC2", -110],
  ["CCNC(=O)NC(=O)CNC1(c2noc(C)n2)CCCC1", 20.6],
  ["CN1CC(c2ccccc2)CC12CCN(C(=O)c1ccc(F)cc1)CC2 (centres undefined)", -12.1],
  ["CNC(=O)[C@H]1C[C@@H]2CCN(Cc3nccs3)C[C@H]2O1", -75.9],
  ["O=C1NCCCCC1Sc1nnc(-c2cccnc2)n1C1CC1 (centres undefined)", -3.86]
]}
